The measurements presented in this section are drawn from ChEMBL document CHEMBL4028802.

species: Homo sapiens; assay: Liver toxicity in human assessed as induction of drug-induced liver injury by measuring verified drug-induced liver injury concern status
result.type: DILI_Concern

1. O=C1CN=C(c2ccccc2Cl)c2cc([N+](=O)[O-])ccc2N1 = Less-Dili-Concern
2. CO[C@H]1C[C@@H]2CC[C@@H](C)[C@@](O)(O2)C(=O)C(=O)N2CCCC[C@H]2C(=O)O[C@H]([C@H](C)C[C@@H]2CC[C@@H](O)[C@H](OC)C2)CC(=O)[C@H](C)/C=C(\C)[C@@H](O)[C@@H](OC)C(=O)[C@H](C)C[C@H](C)/C=C/C=C/C=C/1C = Less-Dili-Concern

* * *

organism: Homo sapiens; test: Liver toxicity in human assessed as induction of drug-induced liver injury by measuring severity class index
Each entry below carries its recorded DILI_severity_class.
Quick one: just the number, no unit, thanks!

Consider the worked cases shown below.
1) CC[C@H]1OC(=O)[C@H](C)[C@@H](O[C@H]2C[C@@](C)(OC)[C@@H](O)[C@H](C)O2)[C@H](C)[C@@H](O[C@@H]2O[C@H](C)C[C@H](N(C)C)[C@H]2O)[C@](C)(O)C[C@@H](C)CN(C)[C@H](C)[C@@H](O)[C@]1(C)O [AZITHROMYCIN] = 7
2) c1ccc2[nH]c(-c3cscn3)nc2c1 [THIABENDAZOLE] = 7
3) C[C@H]1COc2c(N3CCN(C)CC3)c(F)cc3c(=O)c(C(=O)O)cn1c23.C[C@H]1COc2c(N3CCN(C)CC3)c(F)cc3c(=O)c(C(=O)O)cn1c23.O [LEVOFLOXACIN] = 8
4) Cc1c(O)cccc1C(=O)N[C@@H](CSc1ccccc1)[C@H](O)CN1C[C@H]2CCCC[C@H]2C[C@H]1C(=O)NC(C)(C)C = 3

Task: Supply measured DILI_severity_class of COc1ccc([C@@H]2Sc3ccccc3N(CCN(C)C)C(=O)[C@@H]2OC(C)=O)cc1 [DILTIAZEM] in your reply.
Result: 4

* * *

species: Homo sapiens; assay: Liver toxicity in human assessed as induction of drug-induced liver injury by measuring severity class index
Each entry below carries its recorded DILI_severity_class.
Quick one: just the number, no unit, thanks!

Consider the worked cases shown below.
1. CC(=O)Oc1ccc(C(c2ccc(OC(C)=O)cc2)c2ccccn2)cc1 = 0
2. CC(C)NCC(O)COc1ccc(CCOCC2CC2)cc1 (configuration not stated) = 3
3. C/C=C1\NC(=O)[C@@H]2CSSCC/C=C/[C@@H](CC(=O)N[C@H](C(C)C)C(=O)N2)OC(=O)[C@H](C(C)C)NC1=O = 0
4. O=C(O)COc1nn(Cc2ccccc2)c2ccccc12 = 8
5. CCCCC[C@H](O)/C=C/[C@@H]1[C@H]2C/C(=C/CCCC(=O)O)O[C@H]2C[C@H]1O = 7
6. O=C(O)C[C@H](O)C[C@H](O)/C=C/c1c(C2CC2)nc2ccccc2c1-c1ccc(F)cc1 = 3

Note: attention shifts to another entry.
Task: Supply measured DILI_severity_class of [82Rb+].[Cl-] [RUBIDIUM CHLORIDE RB 82] in your reply.
Result: 0

* * *

species: Homo sapiens; test: Liver toxicity in human assessed as induction of drug-induced liver injury by measuring severity class index
So basically: DILI_severity_class at 4 or higher? That is true (1). Lower than 4? That is false (0).

Here's what some known entries look like.
1. CC[C@]1(O)C[C@@H]2CN(CCc3c([nH]c4ccccc34)[C@@](C(=O)OC)(c3cc4c(cc3OC)N(C)[C@H]3[C@@](O)(C(=O)OC)[C@H](OC(C)=O)[C@]5(CC)C=CCN6CC[C@]43[C@@H]65)C2)C1 = false (0)
2. OCCOCCN1CCN(C(c2ccccc2)c2ccc(Cl)cc2)CC1 (stereo not drawn) [HYDROXYZINE] = false (0)
3. Cc1cccc(C)c1OCC(C)N (stereo not drawn) = false (0)
4. C[C@]12CCC(=O)C=C1CC[C@H]1[C@@H]3CC[C@](O)(C(=O)CO)[C@@]3(C)C[C@H](O)[C@@]12F = false (0)
5. CC(C)Nc1cccnc1N1CCN(C(=O)c2cc3cc(NS(C)(=O)=O)ccc3[nH]2)CC1 = true (1)
6. O=C(O)CCNC(=O)c1ccc(/N=N/c2ccc(O)c(C(=O)O)c2)cc1 [BALSALAZIDE] = true (1)
7. CN1CCN(C2=Nc3ccccc3Oc3ccc(Cl)cc32)CC1 = true (1)
8. Cc1c(OCC(F)(F)F)ccnc1C[S+]([O-])c1nc2ccccc2[nH]1 (stereo not drawn) = false (0)
9. NC(=O)[C@@H]1CCCN1C(=O)[C@H](Cc1cnc[nH]1)NC(=O)[C@@H]1CCC(=O)N1 = false (0)
10. NC(=O)NO [HYDROXYUREA] = true (1)

Task: Does DILI_severity_class meet or surpass 4 for NC(=O)C[S+]([O-])C(c1ccccc1)c1ccccc1 (stereo not drawn) ?
Result: false (0)

* * *

organism: Homo sapiens; experiment: Liver toxicity in human assessed as induction of drug-induced liver injury by measuring verified drug-induced liver injury concern status
result.type: DILI_Concern

Consider the worked cases shown below.
1) CC(C)NCC(O)c1ccc(NS(C)(=O)=O)cc1 (stereo not given) [SOTALOL] = Ambiguous-Dili-Concern
2) Cc1c(-c2ccccc2)oc2c(C(=O)OCCN3CCCCC3)cccc2c1=O [FLAVOXATE] = No-Dili-Concern
3) CN[C@H]1CC[C@@H](c2ccc(Cl)c(Cl)c2)c2ccccc21 [SERTRALINE] = Less-Dili-Concern
4) Cc1ccc(C)c(OCCCC(C)(C)C(=O)O)c1 [GEMFIBROZIL] = Most-Dili-Concern
5) NC(N)=Nc1nc(CSCCC(N)=NS(N)(=O)=O)cs1 [FAMOTIDINE] = Less-Dili-Concern

Task: Supply measured DILI_Concern of CC(=O)O[C@@]12CO[C@@H]1C[C@H](O)[C@@]1(C)C(=O)[C@H](O)C3=C(C)[C@@H](OC(=O)[C@H](O)[C@@H](NC(=O)OC(C)(C)C)c4ccccc4)C[C@@](O)([C@@H](OC(=O)c4ccccc4)[C@H]21)C3(C)C [DOCETAXEL ANHYDROUS] in your reply.
Result: Less-Dili-Concern

Task: Supply measured DILI_Concern of CC(=O)[C@]1(O)Cc2c(O)c3c(c(O)c2[C@@H](O[C@H]2C[C@H](N)[C@H](O)[C@H](C)O2)C1)C(=O)c1ccccc1C3=O [IDARUBICIN] in your reply.
Result: Ambiguous-Dili-Concern

Task: Supply measured DILI_Concern of Clc1ccc(C(c2ccccc2Cl)C(Cl)Cl)cc1 (stereo not given) [MITOTANE] in your reply.
Result: No-Dili-Concern

Task: Supply measured DILI_Concern of OC(Cn1cncn1)(Cn1cncn1)c1ccc(F)cc1F [FLUCONAZOLE] in your reply.
Result: Most-Dili-Concern

Task: Supply measured DILI_Concern of Cc1nc2n(c(=O)c1CCN1CCC(c3noc4cc(F)ccc34)CC1)CCCC2 [RISPERIDONE] in your reply.
Result: Less-Dili-Concern

* * *

Each entry below carries its recorded DILI_severity_class.
species on record: Homo sapiens; experiment: Liver toxicity in human assessed as induction of drug-induced liver injury by measuring severity class index
Quick one: just the number, no unit, thanks!

Task: Supply measured DILI_severity_class of Cc1ccc(S(=O)(=O)NC(=O)NN2CCCCCC2)cc1 [TOLAZAMIDE] in your reply.
Result: 2

Task: Supply measured DILI_severity_class of CCCCc1ncc(/C=C(\Cc2cccs2)C(=O)O)n1Cc1ccc(C(=O)O)cc1 [EPROSARTAN] in your reply.
Result: 3

Task: Supply measured DILI_severity_class of COCCc1ccc(OCC(O)CNC(C)C)cc1 (stereo not drawn) [METOPROLOL] in your reply.
Result: 5

* * *

organism: Homo sapiens; assay: Liver toxicity in human assessed as induction of drug-induced liver injury by measuring verified drug-induced liver injury concern status
result.type: DILI_Concern

1. O=c1[nH]c2ccccc2n1C1CCN(CCCC(c2ccc(F)cc2)c2ccc(F)cc2)CC1 [PIMOZIDE] = No-Dili-Concern
2. COC[C@@H](NC(C)=O)C(=O)NCc1ccccc1 [LACOSAMIDE] = Ambiguous-Dili-Concern
3. CCN1C(=O)NC(c2ccccc2)C1=O (centres undefined) [ETHOTOIN] = Ambiguous-Dili-Concern
4. Cc1ccccc1C(OCCN(C)C)c1ccccc1 (centres undefined) [ORPHENADRINE] = No-Dili-Concern

* * *

species on record: Homo sapiens; assay: Liver toxicity in human assessed as induction of drug-induced liver injury by measuring verified drug-induced liver injury concern status
result.type: DILI_Concern

Consider the worked cases shown below.
1. COCCc1ccc(OCC(O)CNC(C)C)cc1.COCCc1ccc(OCC(O)CNC(C)C)cc1.O=C(O)CCC(=O)O (stereo not given) [METOPROLOL SUCCINATE] = Ambiguous-Dili-Concern
2. CC[C@H](C)C(=O)O[C@H]1C[C@H](O)C=C2C=C[C@H](C)[C@H](CC[C@@H](O)C[C@@H](O)CC(=O)O)[C@H]21 = Less-Dili-Concern
3. C=C1CC[C@H](O)C/C1=C/C=C1\CCC[C@]2(C)[C@@H]([C@H](C)/C=C/[C@H](C)C(C)C)CC[C@@H]12 = No-Dili-Concern
4. CCCc1nc(C)c2c(=O)[nH]c(-c3cc(S(=O)(=O)N4CCN(CC)CC4)ccc3OCC)nn12 = Ambiguous-Dili-Concern
5. OC[C@H]1OC(O)[C@H](O)[C@@H](O)[C@@H]1O (stereo not given in full) = No-Dili-Concern

Task: Supply measured DILI_Concern of "C[C@]12CC[C@@H]3c4ccc(O)cc4CC[C@H]3[C@@H]1CCC2=O" in your reply.
Result: Ambiguous-Dili-Concern

Task: Supply measured DILI_Concern of "CC(C)C[C@H](NC(=O)[C@H](Cc1ccccc1)NC(=O)c1cnccn1)B(O)O" in your reply.
Result: Most-Dili-Concern

Task: Supply measured DILI_Concern of CS(=O)(=O)Nc1ccc([N+](=O)[O-])cc1Oc1ccccc1 [NIMESULIDE] in your reply.
Result: Most-Dili-Concern

Task: Supply measured DILI_Concern of "CC[C@H]1OC(=O)[C@H](C)[C@@H](O[C@H]2C[C@@](C)(OC)[C@@H](O)[C@H](C)O2)[C@H](C)[C@@H](O[C@@H]2O[C@H](C)C[C@H](N(C)C)[C@H]2O)[C@](C)(O)C[C@@H](C)C(=O)[C@H](C)[C@@H](O)[C@]1(C)O" in your reply.
Result: Most-Dili-Concern

Task: Supply measured DILI_Concern of "O=C1CCCC(=O)C1C(=O)c1ccc(C(F)(F)F)cc1[N+](=O)[O-]" in your reply.
Result: Ambiguous-Dili-Concern
